src = ChEMBL document CHEMBL1201862

- Test system: RXF 393
- Test Protocol: NCI tumour cell line growth inhibition, 48 h
Calls of active or inactive are those of the source. Rule as the data show it: active = GI50 up to about 1.1 µM and inactive = higher.

{"Compound": "COC(CNC(=O)C(C)NC(=O)CCc1ccccc1)OC (stereo unspecified)", "GI50": "> 100 µM (inactive)"}
{"Compound": "O=C(NNC(=S)Nc1ccccc1)c1cc(-c2ccccc2)nc2ccccc12", "GI50": "19 µM (inactive)"}
{"Compound": "COc1cc(O)c2c(=O)c(OC)c(-c3ccc4c(c3)OCO4)oc2c1", "GI50": "11.2 µM (inactive)"}
{"Compound": "CC(C)C(=O)CC(Sc1ccc(N)cc1)c1ccccc1 (stereo unspecified)", "GI50": "25.9 µM (inactive)"}
{"Compound": "Oc1ccc(Br)cc1/C=N/C1CCCCC1", "GI50": "> 100 µM (inactive)"}
{"Compound": "CCOc1ccc(/N=C/c2ccnc3ccccc23)cc1", "GI50": "> 96.6 µM (inactive)"}

###

Catalogue of GI50 readings, one per entry.
- System: EKVX
- Test Protocol: NCI tumour cell line growth inhibition, 48 h
The source made the active and inactive calls. Rule as the data show it: active = GI50 up to about 1.1 µM and inactive = higher.

{"Molecule": "CCOc1ccc2c(c1)[n+]([O-])c(-c1ccc(Cl)cc1)c(N)[n+]2[O-]", "GI50": "95.7 µM (inactive)"}
{"Molecule": "CC1=C(C(=O)CC(=O)C(=O)Nc2ccccc2C)Sc2ccccc2N1", "GI50": "> 100 µM (inactive)"}
{"Molecule": "O=C(c1ccccc1)c1cc[n+](C2=C([N-]S(=O)(=O)c3ccccc3)C(=O)c3ccccc3C2=O)cc1", "GI50": "14 µM (inactive)"}
{"Molecule": "COc1nc(N)nc2c1n(C)c[n+]2C", "GI50": "> 100 µM (inactive)"}
{"Molecule": "CCOC(=O)C(=O)Nc1c(C)cccc1C", "GI50": "> 100 µM (inactive)"}
{"Molecule": "Cc1nn2c(nc1=O)sc1ccc3ccccc3c12", "GI50": "> 100 µM (inactive)"}
{"Molecule": "N#C/C(c1nc2ccccc2[nH]1)=c1\\s/c(=C/c2ccc(Cl)cc2)c(=O)n1-c1ccccc1", "GI50": "> 100 µM (inactive)"}
{"Molecule": "CC(C)N(O)C(=N)c1ccccc1", "GI50": "> 100 µM (inactive)"}
{"Molecule": "CCOC(=O)C1(CC(=O)O)CCCC1=O (stereo unspecified)", "GI50": "> 100 µM (inactive)"}
{"Molecule": "O=S(=O)(/N=S(/Nc1ccccc1)C(Cl)Cl)c1ccccc1 (stereo unspecified)", "GI50": "> 100 µM (inactive)"}
{"Molecule": "O=C(c1ccccc1Cl)n1oc2ccccc2c1=O", "GI50": "> 100 µM (inactive)"}

###

Catalogue of GI50 readings, one per entry.
- Test system: DU-145
- Test Protocol: NCI tumour cell line growth inhibition, 48 h
Active and inactive are the calls of the source. No stated cut-off is given here; in the data, active = GI50 up to about 1.1 µM and inactive = higher.

{"Compound": "CCOc1ccc(/N=N/S(=O)(=O)O)cc1", "GI50": "> 100 µM (inactive)"}
{"Compound": "Cn1c2ccccc2n2c(N=O)c(-c3ccccc3)nc12", "GI50": "23.7 µM (inactive)"}
{"Compound": "COc1cccc2cc(C(=O)Nc3ccccn3)c(=N)oc12", "GI50": "54.8 µM (inactive)"}
{"Compound": "CC[C@]1(Cc2ccc(OC)c(OC)c2)[C@@H]2C[C@@H](C(=O)OC)ON2O[C@H](OC2CCCC2(c2ccccc2)c2ccccc2)[C@@H]1OC(C)=O (stereo not given in full)", "GI50": "> 100 µM (inactive)"}
{"Compound": "O=C(NNC(=O)c1ccccc1O)c1ccco1", "GI50": "> 100 µM (inactive)"}
{"Compound": "CC1(C)O[C@@H]2[C@@H]3OC(=O)C[C@@H]3[C@@H](COCc3ccccc3)[C@@H]2O1", "GI50": "> 100 µM (inactive)"}
{"Compound": "COc1ccc(/C=C2\\c3cc(OC)c(OC)cc3CCN2C(=O)c2ccccc2)cc1OC", "GI50": "55 µM (inactive)"}
{"Compound": "Cc1ccc2c(c1)C(=O)C(C1OC(=O)c3ccccc31)C2 (stereo not given)", "GI50": "> 100 µM (inactive)"}
{"Compound": "CC(=O)c1nc(C#N)c(N)o1", "GI50": "> 100 µM (inactive)"}
{"Compound": "O=S(=O)(/N=S(/Nc1ccccc1)C(Cl)Cl)c1ccccc1 (stereo not given)", "GI50": "> 100 µM (inactive)"}

###

- Tested on: ACHN
- Test Protocol: NCI tumour cell line growth inhibition, 48 h
The source made the active and inactive calls. Rule as the data show it: active = GI50 up to about 1.1 µM and inactive = higher. Where a SMILES comes first, the peptide text is derived from it. The star is where a group is joined. Boc = CC(C)(C)OC(=O)*
Labels: TRUE for active, FALSE for inactive

{"Compound": "O=c1oc2ccccc2cc1-c1nc2ccc([N+](=O)[O-])cc2o1", "Assigned Label": "FALSE"}
{"Compound": "CN(Cc1cnc2nc(N)nc(N)c2n1)c1ccc(C(=O)NC(CCS(=O)(=O)O)C(=O)O)cc1 (centres undefined)", "Assigned Label": "TRUE"}
{"Compound": "Cc1nn2c(nc1=O)sc1ccc3ccccc3c12", "Assigned Label": "FALSE"}
{"Compound": "COc1ccc(OCC(=O)O)c2c1CCC(C(C)C)C2=O (centres undefined)", "Assigned Label": "FALSE"}
{"Compound": "O=C(CCCl)NN=C1NCCCCN1", "Assigned Label": "FALSE"}
{"Compound": "Brc1ccc2[nH]cc(-c3csc(-c4c[nH]c5ccccc45)n3)c2c1", "Assigned Label": "FALSE"}
{"Compound": "COC(=O)c1ccccc1/C=C1/Cc2cccc(C)c2C1=O", "Assigned Label": "FALSE"}
{"Compound": "CCOc1ccc(/N=N/S(=O)(=O)O)cc1", "Assigned Label": "FALSE"}
{"Compound": "COC(=O)C(C(=O)c1ccccc1)C(C(=O)C(=O)Nc1ccc(OC)cc1OC)C(=O)C(=O)c1ccc(C)cc1 (centres undefined)", "Assigned Label": "FALSE"}
{"Compound": "O=C(NNC(=S)Nc1ccccc1)c1cc(-c2ccccc2)nc2ccccc12", "Assigned Label": "FALSE"}
{"Compound": "O=C(CCc1nnc(S)[nH]1)Nc1ccccc1Cl", "Assigned Label": "FALSE"}
{"Compound": "O=C(/C(=N/Nc1cn[nH]c(=O)c1Cl)c1ccccc1)c1ccccc1", "Assigned Label": "FALSE"}
{"Compound": "CN(C)C(=N/O)/C(=N\\O)N(C)C", "Assigned Label": "FALSE"}
{"Compound": "COc1cc(C(=O)NC(CCN)(c2ccccc2)c2ccccc2)cc(OC)c1OC", "Assigned Label": "FALSE"}
{"Compound": "C[C@@]1(O)CC[C@]2(C)C3CCCC3[C@H]12 (some centres undefined)", "Assigned Label": "FALSE"}
{"Compound": "CC(C)(C)OC(=O)NCC(=O)NCC(=O)NCC(=O)NCC(=O)O (Boc-GGGG-OH)", "Assigned Label": "FALSE"}
{"Compound": "Oc1cc(-c2cccc(OC(F)(F)F)c2)nc2ccc(N3CCCC3)cc12", "Assigned Label": "TRUE"}
{"Compound": "OC(NN=C1CCCC1)(C(F)(F)Cl)C(F)(F)Cl", "Assigned Label": "FALSE"}
{"Compound": "COc1ccc(N2NC(c3ccccc3)(c3ccccc3)C(C)C2=O)cc1 (centres undefined)", "Assigned Label": "FALSE"}
{"Compound": "CC(C)(CN1CCCCC1)C(=O)/C=C/c1ccc(/C=C/C(=O)C(C)(C)CN2CCCCC2)cc1", "Assigned Label": "TRUE"}
{"Compound": "COc1ccc2c(c1)[C@@]13CCCC[C@H]1[C@@H](C2)N(C)CC3=O", "Assigned Label": "FALSE"}
{"Compound": "CC1=C(C(=O)CC(=O)C(=O)Nc2ccccc2C)Sc2ccccc2N1", "Assigned Label": "FALSE"}
{"Compound": "Nc1ccn(C2CCC(COP(=O)(O)OCC(O)COP(=O)(O)OCC3OC(n4cc(F)c(=O)[nH]c4=O)CC3O)O2)c(=O)n1 (centres undefined)", "Assigned Label": "TRUE"}
{"Compound": "OC1OCC(COc2cc(Cl)c(Cl)cc2Cl)OC1O (centres undefined)", "Assigned Label": "FALSE"}
{"Compound": "O=C1c2ccccc2C(=O)C1C(c1ccc([N+](=O)[O-])cc1)C1C(=O)c2ccccc2C1=O", "Assigned Label": "FALSE"}
{"Compound": "C[Si](C)(C)C1=C([Si](C)(C)C)C(Cl)(Cl)C1=O", "Assigned Label": "FALSE"}
{"Compound": "NC1=NN(c2ccccc2)C(=O)C1/C(=N\\NC(=O)c1cc2ccccc2cc1O)C(=O)Nc1ccc(Cl)cc1 (centres undefined)", "Assigned Label": "FALSE"}
{"Compound": "C[n+]1cccc2c(=O)c3ccccc3oc21", "Assigned Label": "FALSE"}
{"Compound": "N=C1N=C(N)c2cc3c(cc21)SCCSCCCSCCS3", "Assigned Label": "FALSE"}
{"Compound": "O=C(CSc1nnc(-c2ccc(/N=C\\c3ccc(Cl)cc3)cc2)o1)Nc1ccccc1[N+](=O)[O-]", "Assigned Label": "FALSE"}
{"Compound": "CC1=C(c2nc3ccccc3s2)C(=O)OC1(C)C", "Assigned Label": "FALSE"}
{"Compound": "C=CCSC1=N/C(=C\\c2cccs2)C(=O)N1CC=C", "Assigned Label": "FALSE"}
{"Compound": "COC(=O)c1nc(N)nc(O)c1-c1ccc(Cl)cc1", "Assigned Label": "FALSE"}
{"Compound": "Cc1c(C(=O)/C=C/c2ccc(Cl)cc2)[n+]([O-])c2ccccc2[n+]1[O-]", "Assigned Label": "FALSE"}
{"Compound": "CS(=O)(=O)N(CCC#N)c1ccc(/C=C2\\N=C(c3ccccc3Cl)OC2=O)cc1", "Assigned Label": "FALSE"}
{"Compound": "CCOC(=O)N1CCC(=O)C(CNC23CC4CC(CC(C4)C2)C3)C1 (centres undefined)", "Assigned Label": "FALSE"}
{"Compound": "COc1ccc(CCNC(=S)NC=C2C(=O)c3ccccc3C2=O)cc1OC", "Assigned Label": "FALSE"}
{"Compound": "CC1=C(C)C(=O)OC(C(C)(O)C2(O)CCC3(O)C4CC(Cl)C5(O)C(O)C=CC(=O)C5(C)C4CCC32C)C1 (centres undefined)", "Assigned Label": "FALSE"}
{"Compound": "Cn1nc2ccc([N+](=O)[O-])cc2[n+]1[O-]", "Assigned Label": "FALSE"}
{"Compound": "COC(=O)CN1c2nc(C#N)c(C#N)nc2N(CC(=O)OC)c2nc(C#N)c(C#N)nc21", "Assigned Label": "FALSE"}
{"Compound": "CC(=O)OC1C2CCC3CC2C2(SCCS2)C31 (centres undefined)", "Assigned Label": "FALSE"}
{"Compound": "O=C1c2ccccc2C(=O)c2c1oc(=O)c1ccccc21", "Assigned Label": "FALSE"}
{"Compound": "O=C1CCCc2cc3c(cc21)CCC3C(=O)O (centres undefined)", "Assigned Label": "FALSE"}
{"Compound": "C=CC(OC(C)=O)c1ccc(OC(C)=O)cc1 (centres undefined)", "Assigned Label": "FALSE"}
